experimental-target: T1, 383 amino acid recombinant tau (UniProt P10636-6 1-383, biotinylated where printed as biotin-rTau383 (position not given))
T1 construct: also called rTau383
T1 sequence (P10636 other isoform, or with tags, fused parts or gaps limits assumed): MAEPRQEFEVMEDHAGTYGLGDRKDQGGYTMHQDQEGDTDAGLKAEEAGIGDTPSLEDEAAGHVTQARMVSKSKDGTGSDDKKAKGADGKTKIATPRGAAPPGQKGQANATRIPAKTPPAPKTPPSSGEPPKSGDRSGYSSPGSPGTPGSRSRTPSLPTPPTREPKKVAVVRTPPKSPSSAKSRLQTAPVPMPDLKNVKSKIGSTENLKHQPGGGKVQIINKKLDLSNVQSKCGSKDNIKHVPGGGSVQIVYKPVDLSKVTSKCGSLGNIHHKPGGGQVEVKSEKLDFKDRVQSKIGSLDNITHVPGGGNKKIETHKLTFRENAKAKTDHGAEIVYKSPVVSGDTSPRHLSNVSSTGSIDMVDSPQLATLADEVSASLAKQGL
assay-summary: Octet

binder	unit-label	kon
VH3/Vk4 (antibody, V domains shown, member of the group m7; also called humanized IPN002 variant VH3/Vk4) VH: EVQLVESGGALVKPGGSLRLSCAASGFSFSKYGMSWVRQAPGKGLEWVATISSSGSRTYYPDSVKGRFTISRDNAKNTLYLQMNSLRAEDTAMYYCSISWDGAMDYWGQGTTVTVSS VL: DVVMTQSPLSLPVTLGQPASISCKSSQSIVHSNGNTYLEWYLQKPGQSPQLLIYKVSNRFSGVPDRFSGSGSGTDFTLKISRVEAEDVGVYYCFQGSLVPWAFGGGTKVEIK	M⁻¹ s⁻¹	211000
VH1/Vk4 (antibody, V domains shown, member of the group m7; also called humanized IPN002 variant VH1/Vk4) VH: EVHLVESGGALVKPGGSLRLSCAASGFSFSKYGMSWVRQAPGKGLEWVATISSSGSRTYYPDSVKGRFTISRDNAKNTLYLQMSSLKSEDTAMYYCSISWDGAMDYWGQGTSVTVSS VL: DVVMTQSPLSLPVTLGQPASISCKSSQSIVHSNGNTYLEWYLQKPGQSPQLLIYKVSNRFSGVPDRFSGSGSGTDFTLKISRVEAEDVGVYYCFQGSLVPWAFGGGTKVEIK	M⁻¹ s⁻¹	167000

Where do the numbers come from? From patent US20160122421A1.
